System: biotinyl-Val-oxazolone
Assay: self-aminoacylation, catalytic enhancement (BVO) (fold over background); higher = more active; k-Seq, kA / k0A0; sequences stand for … in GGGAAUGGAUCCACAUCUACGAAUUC…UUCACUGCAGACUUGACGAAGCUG
Variants at the floor of the assay were thinned out.
# self-aminoacylation binned as class 0: < 1; class 1: ≥ 1 and < 2; class 2: ≥ 2

Recorded results for 10 sequences are shown here.
1) CUACUUCAACCAAUCGGUCCG [Fam1A.1 aminoacylation ribozyme variant] :: class 0
2) AUUACGCAGGUCAUCGAGUGA [Fam2.1 aminoacylation ribozyme variant] :: class 2
3) AGUCACCUAGGUCUUCGGGUG [Fam2.2 aminoacylation ribozyme variant] :: class 2
4) CCACACUUGAAGCAACCGGUC [Fam1B.1 aminoacylation ribozyme variant] :: class 1
5) AAGUUUGCUAAUAGUCCCAAC [Fam3.1 aminoacylation ribozyme variant] :: class 0
6) CUACCUCUAACAAUCGGUCUG [Fam1A.1 aminoacylation ribozyme variant] :: class 0
7) AAGUUUGAGAAUAGUCGCAAG [Fam3.1 aminoacylation ribozyme variant] :: class 1
8) AUUCACCCACGUCAUCGGGUG [Fam2.2 aminoacylation ribozyme variant] :: class 2
9) AUGUUUGCUAACAGUCGCAAG [Fam3.1 aminoacylation ribozyme variant] :: class 1
10) AUCACCCUGAUCAUCGAGUGA [Fam2.1 aminoacylation ribozyme variant] :: class 2

Which band does CCAAAGUUCAAGCAAUCGGUC [Fam1B.1 aminoacylation ribozyme variant] fall in? class 1

Form: Item = AUUACCCUGGUCCUCGAGUGU [Fam2.1 aminoacylation ribozyme variant] ; Class = ? class 1

# bin lookup: classify CUACUUCAAUCAAUGGGUCUG [Fam1A.1 aminoacylation ribozyme variant] by its self-aminoacylation class 0

Which class is correct for the following sequence? AGGUUUGCUAAUAGUCGCCAG [Fam3.1 aminoacylation ribozyme variant] class 1

For this sequence, which bin applies? CUACCUCAAACAAUCGGACUG [Fam1A.1 aminoacylation ribozyme variant] class 0

Which of the defined bands does the recorded self-aminoacylation of AUUACGCUUGUCAUCGAGUGA [Fam2.1 aminoacylation ribozyme variant] sit within? class 2

Exercise: read the entry AUUGCCCUGGUCAUCGAGAGA [Fam2.1 aminoacylation ribozyme variant] and state which class it falls under. class 1

Input AUUCACCAAGUUCAUCGGGUG [Fam2.2 aminoacylation ribozyme variant] ; output its category class 2

Where would AAGGUUGCUAAUUGUCGCAAG [Fam3.1 aminoacylation ribozyme variant] land among the classes by reported self-aminoacylation? class 1

====

Test system: biotinyl-Val-oxazolone
Test: self-aminoacylation, catalytic enhancement (BVO) (fold over background); higher = more active; k-Seq, kA / k0A0; sequences stand for … in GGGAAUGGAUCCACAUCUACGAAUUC…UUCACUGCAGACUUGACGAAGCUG
Fewer inactive variants are shown than the library holds.
List of self-aminoacylation values.
# output: bare number, no unit

A selection of reference data follows.
1. CCACACUCCAAGCAAUCGGGC [Fam1B.1 aminoacylation ribozyme variant] :: 2.08
2. CUAAUUCAAAGAAUCGGUCUG [Fam1A.1 aminoacylation ribozyme variant] :: 0.842
3. AUUCACCUACGGCAUCGGGUG [Fam2.2 aminoacylation ribozyme variant] :: 2.7
4. CUAUUUGAAACAAUCGGUCUG [Fam1A.1 aminoacylation ribozyme variant] :: 0.707
5. AUUAUCCUGGUCAUCGAGCGA [Fam2.1 aminoacylation ribozyme variant] :: 1.41
6. CCACACUUCAAGCAAUCGUUG [Fam1B.1 aminoacylation ribozyme variant] :: 0.908

// sample CUAAUUCAAACAAUCGGUCCG [Fam1A.1 aminoacylation ribozyme variant] , its self-aminoacylation was 0.539

# self-aminoacylation (sequence: GUUCACCUAGGUCAUGGGGUG [Fam2.2 aminoacylation ribozyme variant] ) is 3.01

Form: sequence = CUACUUCUAACAAGCGGUCUG [Fam1A.1 aminoacylation ribozyme variant] ; self-aminoacylation = 0.694

For record AAAUUUGCUAAUAGUCACAAG [Fam3.1 aminoacylation ribozyme variant] the listed self-aminoacylation is 1.49

Value of measured self-aminoacylation for the entry AUCACGCUGGUCAUCGAGUGA [Fam2.1 aminoacylation ribozyme variant] : 4.4

Value of measured self-aminoacylation for the entry AUUGCCCCGGUCAUCGAGUGA [Fam2.1 aminoacylation ribozyme variant] : 3.18
